These data points were gathered from patent US20110105565A1.

We begin with a simple list: items and their reported % Cell viability 20 μM.
system: FRT cells; experiment: Cytotoxicity measurements, crystal violet staining of FRT cells; type: cell-based, rat; conditions: 20 μM, 48 h, crystal violet staining
Give the value, in units of %, as a plain number.

These recorded examples may help you get a feel for the data.
- O=C(O)c1ccc(/C=C2\SC(=S)N(c3cccc(C(F)(F)F)c3)C2=O)cc1 [Compound 5, reference compound]: 86
- Cc1c(N2C(=O)/C(=C/c3ccc(C(=O)O)cc3)SC2=S)cccc1C(F)(F)F: 89
- O=C1/C(=C/c2ccc(-c3nn[nH]n3)cc2)SC(=S)N1c1cccc(C(F)(F)F)c1: 87

We next turn to a different compound, shown below.
## Input Entry `O=C(O)c1ccc(/C=C2\SC(=O)N(c3cccc(C(F)(F)F)c3)C2=O)cc1` has what % Cell viability 20 μM?
## Output 93
